B1: library; numbered along this chain (parent)
chain: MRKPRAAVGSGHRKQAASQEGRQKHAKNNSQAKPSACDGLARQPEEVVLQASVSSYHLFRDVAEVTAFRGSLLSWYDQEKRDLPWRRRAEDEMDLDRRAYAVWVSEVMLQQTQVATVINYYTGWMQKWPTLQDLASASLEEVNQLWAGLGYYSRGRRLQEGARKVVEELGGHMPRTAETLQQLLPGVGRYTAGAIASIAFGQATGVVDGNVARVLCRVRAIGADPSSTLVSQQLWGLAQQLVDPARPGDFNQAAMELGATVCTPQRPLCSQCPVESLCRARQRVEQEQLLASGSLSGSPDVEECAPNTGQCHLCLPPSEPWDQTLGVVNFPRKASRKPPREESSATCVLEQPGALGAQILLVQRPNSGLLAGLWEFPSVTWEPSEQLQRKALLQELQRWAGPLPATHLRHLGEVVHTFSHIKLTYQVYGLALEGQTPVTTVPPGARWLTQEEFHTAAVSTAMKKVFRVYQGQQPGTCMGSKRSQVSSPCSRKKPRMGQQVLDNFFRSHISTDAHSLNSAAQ

Variants of: B1
Run description: 8OG:A repair function score (normalized; synonymous = 0, nonsense = -1) (normalized log-likelihood score); higher = more repair activity (WT-like);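 note: cells sorted at 72 h after reporter transfection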
Recorded conditions: with 8OG:A DNA repair reporter (GFP) in HEK-293 MUTYH KO cells
Give measured 8OG:A repair function score for each item. Keep answers brief.
Respond with the number and no other words.

Memo: L158S , reported 8OG:A repair function score: -1.05

GET /value?item= S227E &field=8OG:A repair function score returns -0.452

Data point: P494R ; 8OG:A repair function score = 0.00547

For this variant ( G123D ), measured 8OG:A repair function score is -0.257

Form: variant = N517Q ; 8OG:A repair function score = 0.00486

Data point: Q126R ; 8OG:A repair function score = 0.0261

8OG:A repair function score recorded for this variant, R189I , is -0.335

Q286G has a reported 8OG:A repair function score of -0.0661

8OG:A repair function score measured on T460G = -0.0856

According to the records, this variant L313N displays 8OG:A repair function score of -0.337

Sample I118Q ; 8OG:A repair function score observed: -0.0947

8OG:A repair function score for L49R is 0.00838

Quick note, 8OG:A repair function score for L158W landed at -0.991

For reference, reported 8OG:A repair function score for N329T stands at -0.361

Form field 8OG:A repair function score, entry A431H : 0.358

Entry A135Q , 8OG:A repair function score reported as -0.686

For this variant ( V465T ), measured 8OG:A repair function score is -0.191

// field: 8OG:A repair function score; key: V166W ; value = 0.0741

The variant H407R showed 8OG:A repair function score equal to -0.0136

Data point: T260Q ; 8OG:A repair function score = -0.0253

Record P404N . Reported 8OG:A repair function score: 0.336

So, R446F ? Its 8OG:A repair function score was -0.449

Lab note: measured 8OG:A repair function score of L49V was -0.0831

Measured 8OG:A repair function score of S486Y : 0.00541

Entry under test: K3C . Its 8OG:A repair function score was -0.0701

// field: 8OG:A repair function score; key: Q286Y ; value = -0.0193

The variant listed as R213S has a reported 8OG:A repair function score of -1.01

Looking up V379W , I found its 8OG:A repair function score recorded as -0.453

Lab book: 8OG:A repair function score of Y469M noted as -0.259

So, S507K ? Its 8OG:A repair function score was -0.0064

variant R482S , 8OG:A repair function score observed: 0.0216

The variant identified as A101Y registered its 8OG:A repair function score at -0.0479

The recorded 8OG:A repair function score for N143T is -0.286

8OG:A repair function score in this record for R219Y : -0.556

8OG:A repair function score reported for this variant E341L : -0.00796

Note to self: 8OG:A repair function score recorded for G429A was 0.031

Reported 8OG:A repair function score of E342F : -0.0595

response.value for L411D (field: 8OG:A repair function score) = -0.751

response.value for T112M (field: 8OG:A repair function score) = -1.06

Briefly, 8OG:A repair function score measured for Q394S : -0.0073

Query L229I yields 8OG:A repair function score of -0.0293

response.value for V166R (field: 8OG:A repair function score) = -0.182

GET /value?item= L184N &field=8OG:A repair function score returns -0.987

According to the records, this variant W321P displays 8OG:A repair function score of -0.252

Value of measured 8OG:A repair function score for the entry L229E : -0.064

Record V427D . Reported 8OG:A repair function score: -1.2
